System: RXF 393
method description: NCI tumour cell line growth inhibition, 48 h
Activity calls are given as the source filed them. Rule as the data show it: active = GI50 up to about 1.1 µM and inactive = higher.
Classes to choose from: y for active, n for inactive

Reference set (2 entries):
COC(=O)c1nn(C(=N)c2ccc(Cl)cc2)c2c1CCC2: n
COc1cc(CCCOC(=O)/C=C/c2ccc(O)c(O)c2)cc(O)c1O: n

Consider the additional molecule presented here.
Query :: Lab log entry: Cc1ccccc1C(C#N)C(=O)C(=O)Nc1cccc(Cl)c1 (stereo not drawn) — outcome as called in the assay?
Result :: n

###

System: M14
method description: NCI tumour cell line growth inhibition, 48 h
Active and inactive are the calls of the source. Rule as the data show it: active = GI50 up to about 1.1 µM and inactive = higher.
Measured GI50 values are reported for all entries that follow.

CCOC(=O)C(CNc1ccc(O)cc1)NC(=O)c1ccccc1 (stereo unspecified): > 66.4 µM (inactive)
c1cc2c(cc1C1OCC3C(c4ccc5c(c4)OCO5)OCC13)OCO2 (stereo unspecified): 66.8 µM (inactive)
CN(CC1(CO)CCC1)c1cc(Cl)nc(N)n1: > 100 µM (inactive)
Cc1n[nH]c(N)c1C(N)=O: > 100 µM (inactive)
CCCCCCCCCCCCCCCC(=O)OC(COC(C)=O)CO[PH](=O)O (stereo unspecified): 14.7 µM (inactive)
CC(=O)OC[C@H]1CN(OC(C)=O)C[C@@H](n2cc(C)c(=O)[nH]c2=O)O1: > 100 µM (inactive)

Query :: Tell me its GI50 given Cc1ccccc1/C=C/C(=O)c1ccccc1 as the entry.
Result :: 16.1 µM (inactive)

Query :: Tell me its GI50 given CN(C)C(=S)/N=c1\ss/c(=N\C(=S)N(C)C)n1-c1ccc2c(c1)OCO2 as the entry.
Result :: > 100 µM (inactive)

###

System: SW-620
method description: NCI tumour cell line growth inhibition, 48 h
Calls of active or inactive are those of the source. No stated cut-off is given here; in the data, active = GI50 up to about 1.1 µM and inactive = higher.
observation type: GI50

Answered cases to consult:
CCOC(=O)c1c(-c2ccc(OC)cc2)ccn1C: > 10 µM (inactive)
CN(CC1(CO)CCC1)c1cc(Cl)nc(N)n1: > 100 µM (inactive)
N=C(N)C(/N=N\c1ccccc1)C(N)=O (stereo unspecified): > 100 µM (inactive)

Query :: Tell me its GI50 given CC(=O)Oc1ccc(OC(Oc2ccccc2)c2ccccc2)cc1 (stereo unspecified) as the entry.
Result :: 38.6 µM (inactive)

Query :: Tell me its GI50 given N#C[BH2-][n+]1ccc(C(=O)NNCc2ccc(F)cc2)cc1 as the entry.
Result :: > 100 µM (inactive)

Query :: Tell me its GI50 given COc1cc2nc(-c3cccs3)nc(Nc3cccc([N+](=O)[O-])c3)c2cc1OC as the entry.
Result :: 24.2 µM (inactive)

###

Test system: BT-549
method description: NCI tumour cell line growth inhibition, 48 h
Activity calls are given as the source filed them. No stated cut-off is given here; in the data, active = GI50 up to about 1.1 µM and inactive = higher.
Classes to choose from: True = active, False = inactive

Query :: Lab log entry: N=C(N)NS(=O)(=O)c1ccc(/N=N/c2c(O)c(C(=O)O)cc3ccccc23)cc1 — outcome as called in the assay?
Result :: False

Query :: Lab log entry: O=[N+]([O-])c1ccc2nc(O)c(/C=C(\O)c3ccccc3)nc2c1 — outcome as called in the assay?
Result :: False

Query :: Lab log entry: C/C(=N\NC(=S)N1CCC1)c1ccccn1 — outcome as called in the assay?
Result :: False

Query :: Lab log entry: O=C1NC2c3c(I)sc(I)c3C(=O)C2O1 (stereo unspecified) — outcome as called in the assay?
Result :: False

Query :: Lab log entry: Cc1nc(-c2ccc(/N=C/c3ccc(N(CCOS(C)(=O)=O)CCOS(C)(=O)=O)cc3C)cc2)cs1 — outcome as called in the assay?
Result :: False

Query :: Lab log entry: Cc1cccc2c1C(=O)[C@@](C)([C@]1(C)Nc3cccc(C)c3C1=O)N2 — outcome as called in the assay?
Result :: False

Query :: Lab log entry: CC1C/C(=N\N(C)C)C(C#N)(C#N)C1(C#N)C#N (stereo unspecified) — outcome as called in the assay?
Result :: False

Query :: Lab log entry: O=C1N[C@H](C(=O)O)[C@@H](c2ccc(OCc3ccccc3)cc2)O1 — outcome as called in the assay?
Result :: False

Query :: Lab log entry: [O-][S+](Cc1ccccc1)c1ccccc1Cn1cccc1 (stereo unspecified) — outcome as called in the assay?
Result :: False

Query :: Lab log entry: O=c1cc(-c2ccccc2)oc2cc(Oc3nnnn3-c3ccccc3)ccc12 — outcome as called in the assay?
Result :: False

###

System: A549
method description: NCI tumour cell line growth inhibition, 48 h
Activity calls are given as the source filed them. Rule as the data show it: active = GI50 up to about 1.1 µM and inactive = higher.
Measured GI50 values are reported for all entries that follow.

Answered cases to consult:
O=C1N[C@H](C(=O)O)[C@@H](c2ccc(OCc3ccccc3)cc2)O1: 81.5 µM (inactive)
CCCC(=O)OC1C(CO)OC(n2cc(F)c(=O)[nH]c2=O)C1F (centres undefined): > 100 µM (inactive)
COCOC1C=CCCCC2=CC(C)=C(CC1)O2 (centres undefined): > 100 µM (inactive)
Cc1cc2nc(N3C(=O)/C(=C/c4ccccc4S)N=C3c3ccccc3)sc2cc1C: 36.6 µM (inactive)
Cc1ccc(N(C(=O)CC(=O)NN)C(=O)c2ccccc2Cl)cc1: > 100 µM (inactive)
CC1=CC2C3(C)C(C)(C(C)=CP3(=O)c3c(C(C)C)cc(C(C)C)cc3C(C)C)C1P2(=O)c1c(C(C)C)cc(C(C)C)cc1C(C)C (centres undefined): 2.42 µM (inactive)
Cc1ccccc1/C=C/C(=O)c1ccccc1: 22.5 µM (inactive)
CC(C)(C)[Si](C)(C)O/N=C\c1cccc(O[Si](C)(C)C(C)(C)C)c1: 17.8 µM (inactive)
O=c1[nH]c(=O)n(CCOc2ccc(Cl)cc2)cc1Nc1ccccc1: > 100 µM (inactive)
Clc1ccc2c(SCC3CO3)c3ccccc3nc2c1 (centres undefined): 7.31 µM (inactive)

Query :: Tell me its GI50 given O=C1C[C@@H](c2ccccc2)O[C@@H](c2ccccc2)C1 as the entry.
Result :: > 100 µM (inactive)

Query :: Tell me its GI50 given COC(=O)c1c(O)ccc2c1c1cc3ccccc3c(O)c1n2CCc1ccc(OC)c(OC)c1 as the entry.
Result :: 43.2 µM (inactive)

Query :: Tell me its GI50 given CCSCC(N)C(=O)O (centres undefined) as the entry.
Result :: > 100 µM (inactive)

Query :: Tell me its GI50 given O=C1C=CC(=O)c2ccc(=O)ccc21 as the entry.
Result :: 30.1 µM (inactive)

###

System: PC-3
method description: NCI tumour cell line growth inhibition, 48 h
Activity calls are given as the source filed them. No stated cut-off is given here; in the data, active = GI50 up to about 1.1 µM and inactive = higher.
Measured GI50 values are reported for all entries that follow.

Answered cases to consult:
Cc1ccc(S(=O)(=O)N2CCSCCSCCSCCSCC2)cc1: 55 µM (inactive)
O=c1c(C(c2cc(OCc3ccccc3)cc(OCc3ccccc3)c2)c2c(O)oc3ccccc3c2=O)c(O)oc2ccccc12: 4 µM (inactive)
COc1ccc(C)cc1NC(=S)N/N=C/c1ccc(SC)cc1: 75 µM (inactive)
CC(=O)N[C@@H](Cc1ccc(O)cn1)C(=O)NCc1ccc(Cl)cc1: > 100 µM (inactive)

Query :: Print PC-3 GI50 for COc1ccc2nccc(/C=C/c3ccc(N(C)C)cc3)c2c1 .
Result :: > 10 µM (inactive)

Query :: Print PC-3 GI50 for O=C(CN1CCN(c2ccccn2)CC1)N1CCCn2c1nc1ccccc1c2=O .
Result :: > 100 µM (inactive)

Query :: Print PC-3 GI50 for CCCCn1c(CSc2ccc(Cl)cc2)c(C(=O)OCC)c2cc(OC)c(Br)cc21 .
Result :: > 100 µM (inactive)

###

Measured GI50 values are reported for all entries that follow.
Test system: OVCAR-5
method description: NCI tumour cell line growth inhibition, 48 h
Counter-ions that a name gives are not always drawn. Activity calls are given as the source filed them. Rule as the data show it: active = GI50 up to about 1.1 µM and inactive = higher.

CN1C[C@H](C(=O)N[C@]2(C)O[C@@]3(O)[C@@H]4CCCN4C(=O)[C@H](Cc4ccccc4)N3C2=O)C=C2c3cccc4[nH]cc(c34)C[C@H]21 [ERGOTAMINE TARTRATE]: 20.2 µM (inactive)
CC(=O)Oc1ccc(OC(Oc2ccccc2)c2ccccc2)cc1 (stereo not given): 27.7 µM (inactive)
CC(=O)c1ccc(/N=N/c2ccc3nonc3c2N)cc1: > 100 µM (inactive)
COc1cc(C(CN)N(C)C)cc(OC)c1OC (stereo not given): > 100 µM (inactive)

Then this compound:
Query :: Tell me its GI50 given O=C1CCSSCCC(=O)Nc2ccccc2N1 as the entry.
Result :: > 100 µM (inactive)

###

System: RXF 393
method description: NCI tumour cell line growth inhibition, 48 h
Where a name gives a salt, the structure may show the parent alone. Activity calls are given as the source filed them. No stated cut-off is given here; in the data, active = GI50 up to about 1.1 µM and inactive = higher.
Measured GI50 values are reported for all entries that follow.

Cc1c(NC(=O)CCCl)c(=O)oc2c(C)c3occc(=O)c3cc12: 33.5 µM (inactive)
COc1ccc2nccc(/C=C/c3ccc(N(C)C)cc3)c2c1: > 10 µM (inactive)
CCC/C(Cl)=N\OC(=O)Nc1cccc(C(F)(F)F)c1: 19.6 µM (inactive)

Query :: Tell me its GI50 given Cc1ccc(N(C(=O)CC(=O)NN)C(=O)c2ccccc2Cl)cc1 as the entry.
Result :: > 100 µM (inactive)

Query :: Tell me its GI50 given CN1C[C@H](C(=O)N[C@]2(C)O[C@@]3(O)[C@@H]4CCCN4C(=O)[C@H](Cc4ccccc4)N3C2=O)C=C2c3cccc4[nH]cc(c34)C[C@H]21 [ERGOTAMINE TARTRATE] as the entry.
Result :: 18 µM (inactive)

Query :: Tell me its GI50 given O=C(Oc1cccc2cccnc12)c1cc2cc(CCl)ccc2oc1=O as the entry.
Result :: 17.3 µM (inactive)

Query :: Tell me its GI50 given CCOC(=O)c1c(-c2ccc(OC)cc2)ccn1C as the entry.
Result :: 9.1 µM (inactive)

Query :: Tell me its GI50 given O=C(N/N=C/c1cc(Cl)cc(Cl)c1O)c1ccccc1O as the entry.
Result :: 1.31 µM (inactive)

Query :: Tell me its GI50 given OCC1OC(c2ccccc2)CC1O (stereo unspecified) as the entry.
Result :: > 100 µM (inactive)

Query :: Tell me its GI50 given O=C1c2ccccc2C(=O)c2sc(Nc3ccc(Cl)cc3)nc21 as the entry.
Result :: 1.53 µM (inactive)

Query :: Tell me its GI50 given CN/C(N)=N/N=C1/C(=O)Nc2ccccc21 as the entry.
Result :: > 100 µM (inactive)

Numbers sourced from ChEMBL document CHEMBL1201862.
